target: Gamma-aminobutyric acid receptor subunit rho-1 (Homo sapiens, UniProt P24046); test: Agonist activity at GABAC rho1 receptor (unknown origin)
Sequence (P24046 whole entry): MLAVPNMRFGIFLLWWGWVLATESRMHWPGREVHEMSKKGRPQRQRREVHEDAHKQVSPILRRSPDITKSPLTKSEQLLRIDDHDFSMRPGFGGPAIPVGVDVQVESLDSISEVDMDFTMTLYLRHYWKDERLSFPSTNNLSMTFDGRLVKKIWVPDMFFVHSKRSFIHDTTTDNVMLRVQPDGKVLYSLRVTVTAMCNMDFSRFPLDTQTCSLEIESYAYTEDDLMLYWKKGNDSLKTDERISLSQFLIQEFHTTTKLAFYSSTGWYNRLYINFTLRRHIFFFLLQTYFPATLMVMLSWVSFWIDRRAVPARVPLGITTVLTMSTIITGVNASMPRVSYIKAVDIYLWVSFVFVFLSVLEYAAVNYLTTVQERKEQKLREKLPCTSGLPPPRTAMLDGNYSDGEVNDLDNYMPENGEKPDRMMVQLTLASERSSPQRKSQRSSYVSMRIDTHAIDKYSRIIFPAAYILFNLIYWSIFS
pEC50: −log10 of the molar value.
PROPERTY NAME: pEC50

CHEMICAL SMILES	RESULT
NC[C@@H]1C[C@@H]1C(=O)O	4.40
Cc1nc[nH]c1CC(=O)O	4.66

====

target: Gamma-aminobutyric acid receptor subunit rho-1 (Homo sapiens); assay: Antagonist activity at human GABAC rho1 receptor expressed in Xenopus laevis oocytes assessed as inhibition of GABA-induced current at 600 uM by two electrode voltage clamp assay relative to control; format: cell-based; conditions: Oocyte

CHEMICAL SMILES	inhibition / %
CCCCP(=O)(O)C1=CC[C@H](NC(=O)CCCCNC(=O)c2ccccc2NC)C1	31
CCCCP(=O)(O)C1=CC[C@H](NC(=O)CCCCCCNC(=O)c2ccccc2NC)C1	55
CCCCP(=O)(O)C1=CC[C@H](NC(=O)CCCCCCCNC(=O)c2ccccc2NC)C1	24
CCCCP(=O)(O)C1=CC[C@H](NC(=O)CCCCCCCCCCNC(=O)c2ccccc2NC)C1	8
CCCCP(=O)(O)C1=CC[C@@H](NC(=O)CCCCCNC(=O)c2ccccc2NC)C1	56
CCCCP(=O)(O)C1=CC[C@H](NC(=O)CNC(=O)c2ccccc2NC)C1	8
CCCCP(=O)(O)C1=CC[C@H](NC(=O)CCCNC(=O)c2ccccc2NC)C1	23
CCCCP(=O)(O)C1=CC[C@H](NC(=O)CCCCCNC(=O)c2ccccc2NC)C1	62

====

target: Gamma-aminobutyric acid receptor subunit rho-1 (Homo sapiens, UniProt P24046); experiment: Partial agonist activity at GABAC rho1 receptor (unknown origin)
pEC50: −log10 of the molar value.
PROPERTY NAME: pEC50

CHEMICAL SMILES	MEASURED TARGET	RESULT
NCc1cc(=O)[nH]o1	Gamma-aminobutyric acid receptor subunit rho-1 (Homo sapiens, UniProt P24046)	5.64

====

molecular target: Gamma-aminobutyric acid receptor subunit rho-1 (Homo sapiens); assay: Antagonist activity at human GABAC rho1 receptor expressed in Xenopus laevis oocytes assessed as inhibition of GABA-induced current preincubated for 5 mins by two electrode voltage clamp assay; format: cell-based, Oocyte

CHEMICAL SMILES	IC50 / µM
CCCCP(=O)(O)C1=CC[C@H](NC(=O)CCCCCNC(=O)CCCC[C@@H]2SC[C@@H]3NC(=O)N[C@@H]32)C1	76.5
CCCCP(=O)(O)C1=CC[C@H](NC(=O)CCCCCNc2ccc([N+](=O)[O-])c3nonc23)C1	193
CCCCP(=O)(O)C1=CC[C@H](NC(=O)CCCCCNC(=O)CCC2=C3C(C)=CC(C)=[N+]3[B-](F)(F)n3c(C)cc(C)c32)C1	58.6

====

Quick list: pIC50 per entry.
biological target: Gamma-aminobutyric acid receptor subunit rho-1 (Homo sapiens, UniProt P24046); assay: Antagonist activity at human GABAC rho1 receptor expressed in Xenopus laevis oocytes assessed as inhibition of GABA-induced current by two electrode voltage clamp assay; format: cell-based, Oocyte
pIC50: −log10 of the molar value.

CHEMICAL SMILES	pIC50
CCCCP(=O)(O)C1=CC[C@H](NC(=O)CCCCCNC(=O)CCCC[C@@H]2SC[C@@H]3NC(=O)N[C@@H]32)C1	3.83
CCCCP(=O)(O)C1=CC[C@H](NC(=O)CCCCCNC(=O)CCC2=C3C(C)=CC(C)=[N+]3[B-](F)(F)n3c(C)cc(C)c32)C1	3.99
CCCCP(=O)(O)C1=CC[C@H](NC(=O)CCCCCNc2ccc([N+](=O)[O-])c3nonc23)C1	3.55
CCCCP(=O)(O)C1=CC[C@H](N)C1	5.01
